SUBJECT OF TEST: Matrix metalloproteinase-9 (Homo sapiens)
Sequence (P14780 whole entry, the tested form may be a part): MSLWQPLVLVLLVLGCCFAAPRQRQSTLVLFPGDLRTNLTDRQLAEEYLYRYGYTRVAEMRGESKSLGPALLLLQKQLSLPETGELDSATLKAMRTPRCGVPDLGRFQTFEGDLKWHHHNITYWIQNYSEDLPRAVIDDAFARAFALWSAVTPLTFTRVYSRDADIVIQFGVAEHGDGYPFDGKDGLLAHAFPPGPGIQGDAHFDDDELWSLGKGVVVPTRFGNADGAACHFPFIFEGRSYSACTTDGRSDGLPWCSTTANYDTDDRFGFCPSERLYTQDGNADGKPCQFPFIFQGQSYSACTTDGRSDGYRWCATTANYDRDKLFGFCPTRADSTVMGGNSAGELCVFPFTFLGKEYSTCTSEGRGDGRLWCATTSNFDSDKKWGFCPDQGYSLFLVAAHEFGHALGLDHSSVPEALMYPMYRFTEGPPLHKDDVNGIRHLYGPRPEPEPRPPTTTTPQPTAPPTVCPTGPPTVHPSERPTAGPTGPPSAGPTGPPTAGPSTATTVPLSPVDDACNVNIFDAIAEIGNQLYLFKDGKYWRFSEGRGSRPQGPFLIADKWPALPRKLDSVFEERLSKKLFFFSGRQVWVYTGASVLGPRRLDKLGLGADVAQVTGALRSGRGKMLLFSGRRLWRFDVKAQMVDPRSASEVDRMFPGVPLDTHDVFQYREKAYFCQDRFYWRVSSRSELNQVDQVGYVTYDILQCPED
MEASUREMENT DESCRIPTION: Inhibition of human recombinant MMP9 catalytic domain incubated for 20 mins by fluorimetric assay
Please respond with reported IC50 for every item in the list.
Numbers only, in µM.

Below: 5 compounds and their reported IC50.
Tested system Matrix metalloproteinase-9 (Homo sapiens); IC50 recorded for COC(=O)C1(O)CC(OC(=O)/C=C/c2ccc(O)c(O)c2)C(O)C(OC(=O)/C=C/c2ccc(O)c(O)c2)C1 (configuration not stated) [MACRATHOIN F] was 11.6

Tested system Matrix metalloproteinase-9 (Homo sapiens); IC50 recorded for CC(C)CC(=O)OC(C(=O)O)C(C)C (configuration not stated) was 14.3

Tested system Matrix metalloproteinase-9 (Homo sapiens); IC50 recorded for COC(=O)[C@@H](Cc1ccc(O)c(O)c1)OC(=O)/C=C/c1ccc(O)c(O)c1 [METHYL ROSMARINATE] was 0.61

Tested system Matrix metalloproteinase-9 (Homo sapiens); IC50 recorded for O=c1c(O)c(-c2ccc(O)c(O)c2)oc2cc(O)cc(O)c12 [QUERCETIN] was 1.61

Tested system Matrix metalloproteinase-9 (Homo sapiens); IC50 recorded for COc1ccc(S(=O)(=O)N2CC(C)(C)CN(S(=O)(=O)c3ccc(OC)cc3)C2C(=O)NO)cc1 was 0.0018

Below is a list of compounds. For each, state its recorded IC50.
1. O=C(c1c(O)cc(O)cc1O)C1c2c(cc(O)c3c2O[C@H](c2ccc(O)cc2)[C@@H](O)C3)OC1c1ccc(O)cc1 (some centres not stated) [DIHYDRODAPHNODORIN B]
2. O=C1c2c(O)cc(O)cc2O[C@H](c2cc(O)c(O)c(O)c2)[C@@H]1O

1: 10.2; 2: 28.8

====

SUBJECT OF TEST: UniProt P14780
MEASUREMENT DESCRIPTION: Inhibition of human recombinant MMP9 catalytic domain at 10 uM incubated for 20 mins by fluorimetric assay
MEASUREMENT LABEL: inhibition

Tested system UniProt P14780; inhibition recorded for C[C@@H]1O[C@@H](O[C@@H]2[C@@H](O)[C@H](OCCc3ccc(O)c(O)c3)O[C@H](COC(=O)/C=C/c3ccc(O)c(O)c3)[C@H]2O)[C@H](O)[C@H](O)[C@H]1O [ISOACTEOSIDE] was > 30%

Tested system UniProt P14780; inhibition recorded for COc1cc(C(O)C(CO)Oc2ccc(/C=C\CO)cc2OC)ccc1O (configuration not stated) was > 30%

Tested system UniProt P14780; inhibition recorded for O=c1cc(-c2ccc(O)c(O)c2)oc2cc(O)cc(O)c12 was > 30%

Tested system UniProt P14780; inhibition recorded for O=C(c1c(O)cc(O)cc1O)C1c2c(cc(O)c3c2O[C@H](c2ccc(O)cc2)[C@@H](O)C3)OC1c1ccc(O)cc1 (some centres not stated) [DIHYDRODAPHNODORIN B] was > 30%

Tested system UniProt P14780; inhibition recorded for COC(=O)C1(O)CC(OC(=O)/C=C/c2ccc(O)c(O)c2)C(O)C(OC(=O)/C=C/c2ccc(O)c(O)c2)C1 (configuration not stated) was > 30%

Below is a list of molecules. For each, state its recorded inhibition.
1. O=c1c(O)c(-c2ccc(O)c(O)c2)oc2cc(O)cc(O)c12
2. COC(=O)[C@@H](Cc1ccc(O)c(O)c1)OC(=O)/C=C/c1ccc(O)c(O)c1 [METHYL ROSMARINATE]

> 30%
> 30%
